# MEASURED ON: Glucose-dependent insulinotropic receptor (Rattus norvegicus)
# Sequence (Q7TQN8 whole entry): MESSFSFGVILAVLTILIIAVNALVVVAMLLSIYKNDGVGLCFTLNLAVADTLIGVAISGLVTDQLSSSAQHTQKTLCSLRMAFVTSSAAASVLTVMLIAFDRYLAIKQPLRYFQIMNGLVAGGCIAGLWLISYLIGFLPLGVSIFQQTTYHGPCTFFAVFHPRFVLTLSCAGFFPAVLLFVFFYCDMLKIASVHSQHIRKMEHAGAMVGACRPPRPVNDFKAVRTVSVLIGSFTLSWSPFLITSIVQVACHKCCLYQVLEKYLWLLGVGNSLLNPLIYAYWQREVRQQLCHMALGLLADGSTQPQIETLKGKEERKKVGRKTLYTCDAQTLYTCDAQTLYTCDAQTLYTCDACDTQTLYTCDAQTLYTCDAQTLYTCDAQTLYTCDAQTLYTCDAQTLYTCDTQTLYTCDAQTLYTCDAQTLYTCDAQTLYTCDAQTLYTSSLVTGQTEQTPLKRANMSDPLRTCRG
# PROTOCOL DETAILS: Agonist activity at rat GPR119 assessed as cAMP accumulation
QUANTITY: EC50 (nM)
Number only, in nM; omit the unit.

Give Glucose-dependent insulinotropic receptor (Rattus norvegicus) EC50 for "Cc1cc2c(c(Oc3cc(NS(=O)(=O)c4ccc(Cl)cc4)ccc3F)n1)C(=O)N(C(C)C)C2=O"
2050

----------
# PROTOCOL DETAILS: Metabolic stability in human liver microsomes assessed as compound remaining at 1 uM after 30 mins
# Assay type: ADME
# CONDITION DESCRIPTION: read-out: Stability
QUANTITY: remaining at 0.5 h, 1 µM (%)
Number only, in %; omit the unit.

Please report the recorded remaining at 0.5 h, 1 µM for "Cc1cc2c(c(Oc3cc(NS(=O)(=O)c4ccc(Cl)cc4)ccc3F)n1)C(=O)N(C(C)C)C2=O" .
88
